test: Single-dose pharmacokinetics of 9cUAB30 in healthy volunteers; type: in vivo, human; conditions: human, urine and plasma, po
endpoint.name: CL renal

### Prompt Reported CL renal, molecule CC(=C/C=C/C(C)=C/C(=O)O)/C=C1\CCCc2ccccc21 [9cUAB30] : ____
### Response 0.3 to 1.72 mL/min
